# PROTOCOL_NOTES: chemical genetic growth profiling, strain panel (AID 1159580);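 note: tested at 20 µM; growth read once vehicle control cultures reached saturation at 30 °C; 1 = growth at the plate median or of vehicle wells; lower values mean less growth of the strain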
# RUN_PARAMETERS: S. cerevisiae deletion strains, growth OD, locus YLR058C, strain SHM2, hits give low values
Out of some 5,500 compounds screened, about 2,000 (36%) were called active. Roughly 18% stayed inconclusive and do not appear here. Some of the results follow.
A collection of compounds and their measured normalized growth

{"SMILES_CODE": "COc1ccc(C[C@H]2NC[C@H](O)[C@H]2OC(C)=O)cc1", "normalized growth": 0.61}
{"SMILES_CODE": "COc1c(CC=C(C)C)c2c(c3oc(=O)c(-c4ccc(OC(C)=O)cc4)c(OC(C)=O)c13)C=CC(C)(C)O2", "normalized growth": 1.04}
{"SMILES_CODE": "COc1ccc(C(=O)c2ccccc2)c(O)c1", "normalized growth": 0.945}

====

List of normalized growth values.
# PROTOCOL_NOTES: chemical genetic growth profiling, strain panel (AID 1159580);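 note: tested at 20 µM; growth read once vehicle control cultures reached saturation at 30 °C; 1 = growth at the plate median or of vehicle wells; lower values mean less growth of the strain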
# RUN_PARAMETERS: S. cerevisiae deletion strains, growth OD, locus YDL192W, strain arf1, hits give low values
Out of some 5,500 compounds screened, about 2,000 (36%) were called active. Roughly 18% stayed inconclusive and do not appear here. The list shows a part of the results.

{"COMPOUND": "C=CCc1ccc2c(c1)OCO2", "normalized growth": 0.99}
{"COMPOUND": "CCCCCC(C)N (stereo not given)", "normalized growth": 0.997}
{"COMPOUND": "OC(CCN1CCCCC1)(c1ccccc1)c1ccccc1", "normalized growth": 1.02}
{"COMPOUND": "O=C1C[C@@H](c2ccccc2)Oc2cc(O)cc(O)c21", "normalized growth": 0.871}
{"COMPOUND": "COc1c(O)cc2oc3cc(O)c(CC=C(C)C)c(O)c3c(=O)c2c1CC=C(C)C", "normalized growth": 0.579}
{"COMPOUND": "Cc1ccc(C(=O)C(C)CN2CCCCC2)cc1 (stereo not given)", "normalized growth": 1.02}
{"COMPOUND": "CC(C)CC1C(=O)N2CCC[C@H]2C2(O)O[C@](NC(=O)C3C=C4c5cccc6[nH]c(Br)c(c56)C[C@H]4N(C)C3)(C(C)C)C(=O)N12 (stereo not given in full)", "normalized growth": 0.965}
{"COMPOUND": "COc1ccc2cc1Oc1ccc(cc1)C[C@H]1c3cc(c(OC)cc3CCN1C)Oc1c(OC)c(OC)cc3c1[C@H](C2)N(C)CC3", "normalized growth": 0.997}
{"COMPOUND": "NC(=O)c1ncn([C@@H]2O[C@H](CO)[C@@H](O)[C@H]2O)c1O", "normalized growth": 1.01}
{"COMPOUND": "O=C(O)c1cc(=O)c2cc(Cl)ccc2[nH]1", "normalized growth": 1.01}
{"COMPOUND": "CC(=O)[C@H]1CCC2C3C[C@H](C)C4=CC(=O)CC[C@]4(C)C3[C@@H](O)C[C@@]21C (stereo not given in full)", "normalized growth": 0.981}
{"COMPOUND": "C=CC1=C(C(=O)O)N2C(=O)[C@@H](NC(=O)/C(=N/O)c3csc(N)n3)[C@H]2SC1", "normalized growth": 0.986}
{"COMPOUND": "CCc1cccc(C)c1N(C(=O)CCl)C(C)COC (stereo not given)", "normalized growth": 1.02}
{"COMPOUND": "O=C(O)c1cc(=O)c2ccc(Cl)cc2[nH]1", "normalized growth": 0.993}
{"COMPOUND": "Cc1cc(=O)c2c(O)c(C)c(O)cc2o1", "normalized growth": 0.954}
{"COMPOUND": "CC1(C)S[C@@H]2[C@H](NC(=O)[C@H](NC(=O)N3CCNC3=O)c3ccccc3)C(=O)N2C1C(=O)O (stereo not given in full)", "normalized growth": 0.982}
{"COMPOUND": "O=C1CC(c2ccccc2)Oc2ccccc21 (stereo not given)", "normalized growth": 0.957}
{"COMPOUND": "O=C1CC(c2ccc(O)cc2)Oc2ccccc21 (stereo not given)", "normalized growth": 0.818}
{"COMPOUND": "CCC1(C)CC(=O)NC1=O (stereo not given)", "normalized growth": 1.02}
{"COMPOUND": "COc1cccc2c1CCC1CC(=O)CCC21C (stereo not given)", "normalized growth": 0.936}
{"COMPOUND": "CCc1nc(N)nc(N)c1-c1ccc(Cl)cc1", "normalized growth": 1}
{"COMPOUND": "Oc1c(Cl)c(Cl)c(Cl)c(Cl)c1Cl", "normalized growth": 0.811}
{"COMPOUND": "CC(C(=O)O)c1ccc2c(c1)[nH]c1ccc(Cl)cc12 (stereo not given)", "normalized growth": 0.954}
{"COMPOUND": "COc1cc(OC)c2c(c1)OC(c1ccc(OC)c(OC)c1)C(O)C2 (stereo not given)", "normalized growth": 1.02}
{"COMPOUND": "OCC(O)Cc1ccc2c(c1)OCO2 (stereo not given)", "normalized growth": 0.999}
